Values were extracted from patent US20210330611A1.

Tested on: primary rat microglia
Assay: Cell toxicity (dead cells, size <150 μm2) in LPS assay
Conditions: primary microglia HTS, LPS stimulation; decreased size (<150 μm^2) as marker of toxicity
Counter-ions that a name gives are not always drawn.
Use rule met when the recorded LPS % cell toxicity is no lower than 1%; use rule not met when it is lower.

Reference set, count: 5
molecule=COc1ccc(C(=O)c2ccccc2)c(O)c1 study_target="primary rat microglia" label_class="rule not met"
molecule="NC(=O)N1c2ccccc2CC(=O)c2ccccc21 [Oxcarbazepine, Trileptal]" study_target="primary rat microglia" label_class="rule not met"
molecule="CC(=O)O[C@H]1C[C@@]2(C)[C@@H](C[C@@H](O)[C@H]3[C@@]4(C)CC[C@@H](O)[C@@H](C)[C@@H]4CC[C@@]32C)/C1=C(\\CCC=C(C)C)C(=O)O [Fusidic acid, reference compound]" study_target="primary rat microglia" label_class="rule met"
molecule="COC(=O)C1=C(C)NC(C)=C(C(=O)OCCN(C)Cc2ccccc2)C1c1cccc([N+](=O)[O-])c1 (stereo not shown)" study_target="primary rat microglia" label_class="rule not met"
molecule=O=C(N/N=C/c1ccc([N+](=O)[O-])o1)c1cc([N+](=O)[O-])cc([N+](=O)[O-])c1O study_target="primary rat microglia" label_class="rule not met"

Form field: LPS % cell toxicity at least 1%? Entry: CN1CCc2c(c3ccccc3n2Cc2ccccc2)C1.CN1CCc2c(c3ccccc3n2Cc2ccccc2)C1.O=S(=O)(O)c1cccc2c(S(=O)(=O)O)cccc12 [Mebhydrolin Naphthalenesulfonate]
rule not met

Form field: LPS % cell toxicity at least 1%? Entry: C[N+]1(C)[C@@H]2CC[C@H]1C[C@@H](OC(=O)C(CO)c1ccccc1)C2 (stereo partly shown) [Methylatropine Nitrate]
rule not met

Form field: LPS % cell toxicity at least 1%? Entry: C[C@@H]1C[C@H]2[C@@H]3CCC4=CC(=O)C=C[C@]4(C)[C@@]3(F)[C@@H](O)C[C@]2(C)[C@H]1C(=O)CO [Desoxymetasone]
rule met

Form field: LPS % cell toxicity at least 1%? Entry: CC(=O)OCC(=O)[C@@]1(O)[C@@H](C)C[C@H]2[C@@H]3CCC4=CC(=O)C=C[C@]4(C)[C@@]3(F)[C@@H](O)C[C@@]21C [Betamethasone Acetate]
rule met

Form field: LPS % cell toxicity at least 1%? Entry: CCN(CC)CCNC(=O)c1cc(Cl)c(N)cc1OC [Metoclopramide]
rule not met

Form field: LPS % cell toxicity at least 1%? Entry: "C[n+]1cc2c3c(ccc2c2ccc4cc5c(cc4c21)OCO5)OCO3"
rule met

Form field: LPS % cell toxicity at least 1%? Entry: CC(=O)OCC(=O)[C@@]1(O)CC[C@H]2[C@@H]3CCC4=CC(=O)CC[C@]4(C)[C@@]3(F)[C@@H](O)C[C@@]21C [Fludrocortisone acetate, reference compound]
rule met

Form field: LPS % cell toxicity at least 1%? Entry: CSc1ccc2c(c1)C(N1CCN(C)CC1)Cc1ccccc1S2 (stereo not shown)
rule not met

Form field: LPS % cell toxicity at least 1%? Entry: "CCCCCCCCCCCCCCCC[N+](C)(C)C"
rule met

Form field: LPS % cell toxicity at least 1%? Entry: "O=[N+]([O-])C(Br)(CO)CO"
rule met

Form field: LPS % cell toxicity at least 1%? Entry: "C=C1c2cccc(O)c2C(=O)C2=C(O)[C@]3(O)C(=O)C(C(N)=O)=C(O)[C@@H](N(C)C)[C@@H]3[C@@H](O)[C@H]12"
rule not met

Form field: LPS % cell toxicity at least 1%? Entry: "CC(=O)[C@H]1CC[C@H]2[C@@H]3C[C@H](C)C4=CC(=O)CC[C@]4(C)[C@H]3[C@@H](O)C[C@]12C"
rule met

Form field: LPS % cell toxicity at least 1%? Entry: "O=C(O)c1cccnc1Nc1cccc(C(F)(F)F)c1"
rule not met

Form field: LPS % cell toxicity at least 1%? Entry: COc1ccc(OC)c(C(O)C(C)N)c1 (stereo not shown)
rule not met

Form field: LPS % cell toxicity at least 1%? Entry: "CCCCC[C@H](O)/C=C/[C@H]1[C@H](O)CC(=O)[C@@H]1CCCCCCC(=O)O"
rule met

Form field: LPS % cell toxicity at least 1%? Entry: "CC1=CC(=O)c2ccccc2C1=O"
rule met

Form field: LPS % cell toxicity at least 1%? Entry: CCN(CC)CCOC(=O)C(Cc1cccc2ccccc12)CC1CCCO1 (stereo not shown) [Nafronyl Oxalate]
rule not met
